target: TGF-beta receptor type-1 (Homo sapiens); assay: Binding affinity to Activin A receptor type II-like kinase (ALK5) in fluorescence polarization binding assay; Range is (0.783-1.764)
result-type: pIC50
// field semantics: pIC50 = negative decimal log of concentration (mol/L)

Give pIC50 for `Nc1nc(-c2nccs2)c(-c2ccnc3ccccc23)s1` 5.93

* * *

target: TGF-beta receptor type-1 (Homo sapiens); assay: Binding affinity to Activin A receptor type II-like kinase (ALK5) in fluorescence polarization binding assay; Range is (2.423-6.540)
result-type: pIC50
Interpret pIC50 as the negative base-10 log of the concentration measured in mol/L.

Return pIC50 for the following molecule: `Nc1nc(-c2cccnc2)c(-c2ccnc3ccccc23)s1` 5.40

* * *

Molecular target: TGF-beta receptor type-1 (Homo sapiens)
Sequence (P36897 whole entry): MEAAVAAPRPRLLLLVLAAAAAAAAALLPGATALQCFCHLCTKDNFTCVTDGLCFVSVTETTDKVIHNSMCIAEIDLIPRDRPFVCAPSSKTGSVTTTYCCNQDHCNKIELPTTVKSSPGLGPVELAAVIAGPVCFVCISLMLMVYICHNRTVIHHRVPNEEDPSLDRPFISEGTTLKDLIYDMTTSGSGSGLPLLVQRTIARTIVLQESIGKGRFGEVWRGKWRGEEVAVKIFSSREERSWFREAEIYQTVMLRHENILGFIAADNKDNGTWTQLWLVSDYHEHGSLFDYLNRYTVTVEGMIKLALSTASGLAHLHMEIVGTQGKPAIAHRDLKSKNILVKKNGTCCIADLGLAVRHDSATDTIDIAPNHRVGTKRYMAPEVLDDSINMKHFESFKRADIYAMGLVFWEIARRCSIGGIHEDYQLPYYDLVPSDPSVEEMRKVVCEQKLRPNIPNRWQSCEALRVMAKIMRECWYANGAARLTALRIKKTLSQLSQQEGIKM
Test: Stimulation of Transforming growth factor beta receptor I kinase in HepG2 cells
Assay type: functional, cell-based
result-type: IC50

Answer with the recorded IC50 of `CCOc1ccc2nc(-c3sc(N)nc3-c3ccccn3)ccc2n1` only. > 10 µM

Tell me measured IC50 for `Nc1nc(-c2ccccn2)c(-c2cccc3ccccc23)s1` please. > 10 µM

Fill in reported IC50 for this entry: `Nc1nc(-c2cc(Cl)ccn2)c(-c2ccnc3ccccc23)s1` > 10 µM

Read off the recorded IC50 for `Cc1ccc(-c2nc(N)sc2-c2ccnc3ccccc23)nc1` > 10 µM

Answer with the recorded IC50 of `c1ccc(-c2n[nH]cc2-c2ccc3ncccc3n2)nc1` only. 0.05 µM

Supply measured IC50 of Nc1nc(-c2ccc(F)cc2)c(-c2ccc3ncccc3n2)s1 [GW785804X] in your reply. 0.03 µM
